- Test system: HOP-62 NSCLC
- METHOD: NCI tumour cell line growth inhibition, 48 h
EXPERIMENTAL_ENDPOINT: TGI (µM)

{"columns": ["MOLECULE", "EXPERIMENTAL_ENDPOINT", "UNIT_STRING", "QUALIFIER_OPERATOR", "MEASUREMENT"],
 "data": [
  ["C=CC(=O)N1C/C(=C\\c2ccc([N+](=O)[O-])cc2)C(=O)/C(=C/c2ccc([N+](=O)[O-])cc2)C1", "TGI", "µM", "=", 0.375],
  ["CCOC(=O)C(=CNC(=S)N=Nc1c(O)[nH]c2ccccc12)C(=O)OCC", "TGI", "µM", ">", 100],
  ["Nn1c(=O)[nH]c2ncn(Cc3ccccc3)c2c1=O", "TGI", "µM", ">", 100],
  ["COC(=O)/C(C#N)=C(\\N)C(Cl)(Cl)Cl", "TGI", "µM", "=", 39],
  ["N/C(=N\\Nc1ccc(Cl)cc1)c1cnccn1", "TGI", "µM", ">", 100],
  ["CN1CCc2c(sc3ncn(Nc4ccc(Cl)cc4)c(=N)c23)C1", "TGI", "µM", ">", 100],
  ["CCN(CC)CC1CN=C(N)O1 (stereo not given)", "TGI", "µM", ">", 100],
  ["COC(=O)[C@@H](C)[C@H]1CC[C@@](C)(CCC2=C(C)CC3C=C(C)CCC3C2(C)C)OO1 (stereo not given in full)", "TGI", "µM", "=", 3.72],
  ["C[C@H]1CNC(=O)c2cnn3ccc(nc23)N[C@H](C)c2cc(F)ccc2O1", "TGI", "µM", ">", 21.5],
  ["C[C@]12CC[C@H]3[C@@H](CC4SC(N)=NC45C/C(=N/NC(N)=O)CC[C@]35C)[C@@H]1CCC2=O (stereo not given in full)", "TGI", "µM", "=", 3.47]
]}
